Assay Notes: NCI Yeast Anticancer Drug Screen. Data for the mgt1 strain (AID 153)
Particulars: S. cerevisiae mgt1 mutant growth inhibition; at 3.7 µM; active compounds read high
Compounds without any hit were thinned out: in the full panel of roughly 79,000, 15% have a hit.
Measurement Type: growth inhibition (%)
Please state the figure in %; there is no need to write the unit.

// lookup growth inhibition for Cc1c2cc[n+](CCO)cc2c(C)c2c1[nH]c1ccc(O)cc12
26

// lookup growth inhibition for CC(C)OC(=O)NNc1cccc(Cl)c1
7

// lookup growth inhibition for O=C1C(/C=C/c2ccc(Cl)cc2)=NNC2N1N=C1NC(=O)C3(NN12)c1ccccc1-c1ccccc13 (centres undefined)
-2

// lookup growth inhibition for O=C1C(=O)c2cccc([N+](=O)[O-])c2-c2ccccc21
-2

// lookup growth inhibition for CC(C(=O)N1C(=O)N(C(=O)C(C)C(O)c2ccccc2)C2CCCCC21)C(O)c1ccccc1 (centres undefined)
0

// lookup growth inhibition for N#[N+]c1c([O-])c2ccccc2c2ccccc12
15

// lookup growth inhibition for CCOC(=O)/C(=C\c1ccc(F)cc1)C(C)=O
6

// lookup growth inhibition for BrC1C2CCC3OC3C12 (centres undefined)
3

// lookup growth inhibition for CCCCCCCCCCCCOCCOCCOCC(N)=O
-8

// lookup growth inhibition for O=C1SS(=O)c2ccccc21 (centres undefined)
12

// lookup growth inhibition for CN(CCOc1ccc(Cl)cc1)CCOc1ccc(Cl)cc1
13

// lookup growth inhibition for CC/C(=C(\c1ccccc1)c1ccc(OCC[N+](C)(C)C)cc1)c1ccccc1
55

// lookup growth inhibition for O=C(CCSC1=NCCCN1)c1ccc(F)cc1
-59

// lookup growth inhibition for O=C(Nn1c(-c2ccccc2)nc2ccccc2c1=O)c1ccc(CS)cc1
-19

// lookup growth inhibition for CC(C)(CN1CCCCC1)C(=O)CC(SCCS(=O)(=O)O)c1ccccc1 (centres undefined)
5

// lookup growth inhibition for COC(=O)c1ccccc1N=NNc1cccc(SC)c1
-18

// lookup growth inhibition for OC1(C#CI)CCCCC1
-3

// lookup growth inhibition for COc1ccc(C(OCC2OC(n3cnc4c(=O)n(Cc5ccccc5[N+](=O)[O-])nnc43)C(O)C2O)(c2ccccc2)c2ccc(OC)cc2)cc1 (centres undefined)
5

// lookup growth inhibition for CCCCCCCCCCCCCCCCCCNC(=S)/N=C/c1c(O)c2ccccc2[nH]c1=O
4

// lookup growth inhibition for [N-]=[N+]=NC1(c2ccccc2)C(=O)Nc2ccccc2C1=O (centres undefined)
-6

// lookup growth inhibition for COc1ccc2cc3c4cc5c(cc4cc[n+]3cc2c1OC)OCO5
39

// lookup growth inhibition for O=c1c2ccccc2nc(-c2ccc(Cl)cc2)n1O
90

// lookup growth inhibition for CCN(CC)CC(=O)c1ccc2cc(Cl)c3ccccc3c2c1
13

// lookup growth inhibition for CC1(C)OC(=O)C(=Cc2ccc([N+](=O)[O-])s2)C(=O)O1
15
